- Tested on: DLD-1
- protocol-description: NCI tumour cell line growth inhibition, 48 h
Active and inactive are the calls of the source. No stated cut-off is given here; in the data, active = GI50 up to about 1.1 µM and inactive = higher.
Collected GI50 values appear next to each entry.

{"molecule": "Cn1ccc2c(C(=O)c3ccccc3)cccc2c1=O", "GI50": "44.6 µM (inactive)"}
{"molecule": "CCNC1C2(CCCCC2)NC(=O)C12CCCCC2 (centres undefined)", "GI50": "> 100 µM (inactive)"}
{"molecule": "CCOC(=O)NC(=O)c1cn(CCOC(=O)CCCCCCCCC(=O)OCCn2cc(C(=O)NC(=O)OCC)c(=O)[nH]c2=O)c(=O)[nH]c1=O", "GI50": "> 100 µM (inactive)"}

Continue with the next molecule.
State the recorded GI50 for this entry: CC(=O)O[C@H]1CC[C@@]2(C)C(=C/C(=N\[N+](=O)[O-])[C@H]3C4CCC([C@H](C)CCCC(C)C)[C@@]4(C)CCC32)C1 (some centres undefined) > 100 µM (inactive)

* * *

- System: MDA-MB-231
- protocol-description: NCI tumour cell line growth inhibition, 48 h
Active and inactive are the calls of the source. Rule as the data show it: active = GI50 up to about 1.1 µM and inactive = higher.
Form entry, call: pick from true for active, false for inactive

{"compound": "Cc1ccc(C(C)C)c(OCC(=O)N/N=C/c2c[nH]c3ccc(Br)cc23)c1", "label-value": "false"}
{"compound": "CN1CCN2CCN(C)CCN(CC1)CC2", "label-value": "false"}
{"compound": "CCOC(=O)c1c2ccccc2n2c(=O)n(-c3ccccc3)nnc12", "label-value": "false"}
{"compound": "COC(=O)C(COC(=O)/C=C/c1ccc(OC(C)=O)c(OC(C)=O)c1)OC(=O)/C=C/c1ccc(OC(C)=O)c(OC(C)=O)c1 (stereo not drawn)", "label-value": "false"}

Could you please tell me the result logged for Cc1c(C)c2c(c(N)c1C#N)C(=O)N(OS(=O)(=O)c1ccccc1)C2=O in this assay? false

Param item: CO[C@H]1C[C@H](O[C@H]2CC[C@]3(C=O)[C@H]4CC[C@]5(C)[C@@H](C6=CC(=O)OC6)CC[C@]5(O)[C@@H]4CC[C@]3(O)C2)O[C@H](C)[C@H]1O[C@@H]1O[C@H](CO[C@@H]2O[C@H](CO)[C@@H](O)[C@H](O)[C@H]2O)[C@@H](O)[C@H](O)[C@H]1O true

Param item: Brc1ccc2[nH]cc([C@H]3CN[C@@H](c4c[nH]c5ccc(Br)cc45)CN3)c2c1 false

Param item: O=C(NCCCl)N(O)C(=O)Nc1ccccc1 false

* * *

- Test system: 786-0
- protocol-description: NCI tumour cell line growth inhibition, 48 h
Activity calls are given as the source filed them. No stated cut-off is given here; in the data, active = GI50 up to about 1.1 µM and inactive = higher.
Form entry, call: pick from active, inactive

Solved cases (3 shown):
{"compound": "O=C(O)c1cc(C(=O)C(=O)c2cc(C(=O)O)c(O)c3ccccc23)c2ccccc2c1O", "study-system": "786-0", "label-value": "inactive"}
{"compound": "Oc1cc(-c2ccccc2)c2ccccc2n1", "study-system": "786-0", "label-value": "inactive"}
{"compound": "Cc1ccc(-c2n[nH]c(=O)[nH]2)cc1", "study-system": "786-0", "label-value": "inactive"}

Could you please tell me the result logged for CC1(C)Cc2c(c3ccccc3c3nc4c(nc23)c2c(c3ccccc34)OC(C)(C)C2)O1 in this assay? inactive

Param item: CC1=NN2C(=O)CC(=O)N=C2S1 inactive

Param item: COc1ccccc1Cn1c2c(c3c(C(=O)NCCN(C)C)c(O)ccc31)C(=O)c1ccccc1C2=O active

* * *

- Test system: CCRF-CEM
- protocol-description: NCI tumour cell line growth inhibition, 48 h
The source made the active and inactive calls. No stated cut-off is given here; in the data, active = GI50 up to about 1.1 µM and inactive = higher.
Collected GI50 values appear next to each entry.

{"compound": "BrC1=C(Br)C2(SCCS2)[C@H]2C[C@@H]1c1ccccc12", "study-system": "CCRF-CEM", "GI50": "14.6 µM (inactive)"}
{"compound": "COc1cc(C2S/C(=C/c3ccccc3)C(=O)N2c2ccc(Cl)cc2)cc(OC)c1OC (stereo unspecified)", "study-system": "CCRF-CEM", "GI50": "4.4 µM (inactive)"}

State the recorded GI50 for this entry: OCCOCn1nc(-c2ccccc2)nc1-c1cnccn1 > 100 µM (inactive)

Param item: O=[N+]([O-])c1ccc(CN(CCCl)OCCCl)cc1 35.5 µM (inactive)

Param item: CCOC(=O)c1c2ccccc2n2c(=O)n(-c3ccccc3)nnc12 1.4 µM (inactive)

Param item: CCN(CC)CCn1nc(N)c2nc3ccccc3nc21 > 100 µM (inactive)

Param item: CCCCCCCCCCCCCCCCC(C(=O)O)C(O)(CC(=O)O)C(=O)O (stereo unspecified) 27.1 µM (inactive)

Param item: N=C(N)C1CN(CCc2c[nH]c3ccccc23)C(=O)NC1=O (stereo unspecified) > 100 µM (inactive)

Param item: Cc1ccc(C(C)C)c(OCC(=O)N/N=C/c2c[nH]c3ccc(Br)cc23)c1 2.11 µM (inactive)

Param item: CC(C)=CC(=O)c1[nH]c2ccccc2c1CC(=O)NCCc1cncn1C 55.2 µM (inactive)

Param item: Nc1c2c(nc3ccccc13)-c1ccccc1CC2 3.4 µM (inactive)

* * *

Collected GI50 values appear next to each entry.
- Test system: EKVX
- protocol-description: NCI tumour cell line growth inhibition, 48 h
Active and inactive are the calls of the source. Cut-off read from the data, not from the text of the source: active = GI50 up to about 1.1 µM and inactive = higher.

{"compound": "O=c1[nH]c(=O)n([C@@H]2O[C@H](CO)[C@@H](O)[C@H]2O)cc1F", "measure": "GI50", "observed-result": "37.2 µM (inactive)"}
{"compound": "C=C1CC2(OC1=O)c1ccccc1C=Cc1ccccc12", "measure": "GI50", "observed-result": "8.85 µM (inactive)"}

State the recorded GI50 for this entry: O/N=C(\C=N\O)c1ccc2c(c1)Sc1ccccc1O2 16.5 µM (inactive)

Param item: O=C1NC(c2cccc3ccccc23)Nc2ccc(O)cc21 (stereo not given) 42.3 µM (inactive)

* * *

HCT-15: recorded GI50 for assorted compounds

Here's what some known entries look like.
{"compound": "O=C(NNc1cn[nH]c(=O)n1)c1cccc2nc3ccccc3nc12", "GI50": "> 100 µM"}
{"compound": "N=C(N)C1CN(CCc2c[nH]c3ccccc23)C(=O)NC1=O (configuration not stated)", "GI50": "> 100 µM"}
{"compound": "Cc1cc(Cl)nc2nc(Cl)c(N)cc12", "GI50": "1.9 µM"}
{"compound": "CC1CNC(c2ccc(-c3nc(-c4ccc(C5=NC(C)CN5)cc4)nc(N(C)C)n3)cc2)=N1 (configuration not stated)", "GI50": "16.6 µM"}
{"compound": "CCCCC(NC(=O)CC)C(=O)O (configuration not stated)", "GI50": "> 100 µM"}

Continue with the next compound.
State the recorded GI50 for this entry: Cn1ccc2c(C(=O)c3ccccc3)cccc2c1=O 25.8 µM

* * *

- System: SF-539
- protocol-description: NCI tumour cell line growth inhibition, 48 h
Activity calls are given as the source filed them. No stated cut-off is given here; in the data, active = GI50 up to about 1.1 µM and inactive = higher.
Form entry, call: pick from true (1) (active), false (0) (inactive)

{"compound": "NC(=S)N1N=C(c2ccc3c(c2)CCC3)CC1c1ccccc1 (stereo unspecified)", "study-system": "SF-539", "label-value": "false (0)"}
{"compound": "CCOC(=O)NN(C(=O)OCC)C(C(=O)c1ccc(Cl)cc1)=C1NCCN1", "study-system": "SF-539", "label-value": "false (0)"}
{"compound": "O=C(O)c1cc(NC2=C(Cl)C(=O)c3c(O)ccc(O)c3C2=O)ccc1O", "study-system": "SF-539", "label-value": "false (0)"}

Could you please tell me the result logged for N/N=C(\Nc1ccccc1)SCc1ccccc1 in this assay? false (0)

Param item: Cc1nc(C)c(N2CCN(Cc3ccccc3)CC2)c(O)n1 false (0)

* * *

- Tested on: M19-MEL
- protocol-description: NCI tumour cell line growth inhibition, 48 h
Active and inactive are the calls of the source. Cut-off read from the data, not from the text of the source: active = GI50 up to about 1.1 µM and inactive = higher.
measure: GI50

Here's what some known entries look like.
{"molecule": "CCC(=O)N/N=C(\\C=C\\c1cccc(O)c1)c1sc(Nc2ccc(C)cc2[N+](=O)[O-])nc1C", "GI50": "> 100 µM (inactive)"}
{"molecule": "COc1ccc(CCNCCCC2c3ccccc3-c3ccccc32)cc1OC", "GI50": "11.1 µM (inactive)"}
{"molecule": "N#CC(NNC(=O)Cc1ccccc1)c1ccc(O)cc1 (stereo not given)", "GI50": "> 100 µM (inactive)"}
{"molecule": "Cc1csc(=S)n1OC(=O)NC1CCCCC1", "GI50": "16.5 µM (inactive)"}

Continue with the next molecule.
State the recorded GI50 for this entry: CCOC(=O)NC(=O)c1cn(-c2ccc(CCOC(=O)NCCCCCCNC(=O)OCCc3ccc(-n4c(=O)[nH]cc(C(=O)NC(=O)OCC)c4=O)cc3)cc2)c(=O)[nH]c1=O 47 µM (inactive)

* * *

- Test system: COLO 205
- protocol-description: NCI tumour cell line growth inhibition, 48 h
Activity calls are given as the source filed them. Rule as the data show it: active = GI50 up to about 1.1 µM and inactive = higher.
Form entry, call: pick from active, inactive

Solved cases (3 shown):
{"compound": "OCc1ccc(C2CC(c3ccco3)=NN2c2ccccc2)o1 (configuration not stated)", "study-system": "COLO 205", "label-value": "inactive"}
{"compound": "Cc1c2cc[n+](C)cc2c(C)c2c1[nH]c1ccc(O)cc12 [ELLIPTINIUM ACETATE]", "study-system": "COLO 205", "label-value": "inactive"}
{"compound": "COc1ccc(NC(=O)CCc2cc(C(C)(C)C)[nH]n2)cc1", "study-system": "COLO 205", "label-value": "inactive"}

Could you please tell me the result logged for CC1(C)N=c2c(ncn2-c2ccccc2)=C(C(N)=O)N1 in this assay? inactive

Param item: CCOC(=O)c1ccc(/N=C2/C(=S)N(c3ccc(C(=O)OCC)cc3)C(=N)N2/N=C/c2ccccc2)cc1 inactive

Param item: Cn1nc(-c2ccccc2)c(C(=O)/C=C/c2ccccc2)c(N2CCCCC2)c1=O inactive

Param item: CCOC(=O)NN(C(=O)OCC)C(C(=O)c1ccc(Cl)cc1)=C1NCCN1 inactive
